Quick reference: EC50 of the listed items.
- SUBJECT_OF_TEST: T1, human CS1 (HuCS1) (human, UniProt Q9NQ25 23-335)
- T1 construct: also called FL-HuCS1; SLAMF7
- MEASUREMENT_PROTOCOL: flow cytometry on L-363 cells, PE goat anti-human Fc detection
- Procedure: L-363 cells were incubated with different amounts of test antibody on ice for 30 min. Cells were washed three times with PBS+1% FBS. A PE-conjugated goat anti-human Fc antibody was added to the cells and incubated for 30 min on ice. Cells were washed three times with PBS+1% FBS, and binding was quantitated by flow cytometry.
Please give a number only; it is taken to be in nM.

Look over these answered cases.
* HuCS1.27A12 (antibody, V domains shown, Humanized antibody; It has a human Fc (detected with anti-human Fc); also called Hu27A12) VH: EVQLVESGGGLVQPGGSLRLSCAASGFTFSDYYMAWVRQAPGKGLEWVAEINYDGSSTYYVDSVKGRFTISRDNAKNSLYLQMNSLRAEDTAVYYCARDRGFYFDYWGQGTTVTVSS VL: DVVMTQTPLSLSVTPGQPASISCRSSQSLVHNNGNTYLHWYLQKPGQSPQLLIYKVSNRFSGVPDRFSGSGSGTDFTLKISRVEAEDVGVYFCSQSTHVPPYTFGGGTKVEIK | 4.7
* elotuzumab (antibody, IgG1, V domains shown, also called HuLuc63) VH: EVQLVESGGGLVQPGGSLRLSCAASGFDFSRYWMSWVRQAPGKGLEWIGEINPDSSTINYAPSLKDKFIISRDNAKNSLYLQMNSLRAEDTAVYYCARPDGNYWYFDVWGQGTLVTVSS VL: DIQMTQSPSSLSASVGDRVTITCKASQDVGIAVAWYQQKPGKVPKLLIYWASTRHTGVPDRFSGSGSGTDFTLTISSLQPEDVATYYCQQYSSYPYTFGQGTKVEIKR | 35.9
* HuCS1.34C3 (antibody, human IgG1, kappa, V domains shown, Humanized IgG1; also called Hu34C3) VH: EVQLVESGGGLVQPGGSLRLSCAASGFTFSDYYMAWVRQAPGKGLEWVASINYDGSSTYYVDSVKGRFTISRDNAKNSLYLQMNSLRAEDTAVYYCARDRGYYFDYWGQGTTVTVSS VL: DVVMTQTPLSLSVTPGQPASISCRSSQSLVHSNGNTYLHWYLQKPGQSPQLLIYKVSNRFSGVPDRFSGSGSGTDFTLKISRVEAEDVGVYFCSQSTHVPPFTFGGGTKVEIKR | 2.5

Let us move to another entry and its EC50.
Tell me EC50 reported for HuCS1.31D2.2 (antibody, V domains shown, Humanized antibody; It has a human Fc (detected with anti-human Fc); also called Hu31D2) VH: EVQLVESGGGLVQPGGSLRLSCAASGFTFSDYYMAWVRQAPGKGLEWVADINYDGGSTYYLDSLKSRFTISRDNAKNSLYLQMNSLRAEDTAVYYCARDRGYYFDYWGQGTLVTVSS VL: DVVMTQSPLSLPVTPGEPASISCRSSQSLVHSNGNTYLHWYLQKPGQSPQLLIYKVSNRFSGVPDRFSGSGSGTDFTLKISRVEAEDVGVYFCSQSTHVPPFTFGGGTKVEIK
3.1
